Numbers sourced from the METLIN SMRT retention time set (Domingo-Almenara et al. 2019).

Test: gradient 5% acetonitrile 3 min, to 50% in 2 min, to 85% in 15 min, held 3 min, 100 µL/min
Conditions: column: Zorbax Extend-C18 2.1 x 50 mm; eluents: water / acetonitrile, 0.1% formic acid
Catalogue of RP-LC retention time values

Reference set, count: 5
# molecule, RP-LC retention time
data = [
    ("Cn1nc(C(=O)OCc2cc(-c3ccc(Cl)cc3)on2)ccc1=O", "812 s"),
    ("CN(C)c1ccc(CNc2ncccc2-c2nnc(-c3ccccc3)o2)cc1", "884 s"),
    ("CN(C)c1ccc(-c2noc(CCC(=O)Nc3ccc4c(c3)OCCO4)n2)cc1", "875 s"),
    ("Cc1ccc(NC(=O)C2CCN(S(=O)(=O)c3ccc4c(c3)CCCC(=O)N4)CC2)cc1C", "814 s"),
    ("COc1cccc(-c2ccc(SCC(=O)Nc3ccccc3C(F)(F)F)nn2)c1", "912 s"),
]

Query: I have this molecule here, Cc1ccc2c(c1)C(c1ccc(F)cc1)N(C(=O)c1ccc(S(=O)(=O)N(C)C)cc1)CC(=O)N2 (configuration not stated) , and I need its recorded RP-LC retention time.
Reply: 885 s

Query: Quick one: `O=C(Cc1cccc(F)c1)Nc1nnc(SCc2nnc(-c3ccccc3)o2)s1`
Reply: 873 s

----------
Test: gradient 5% acetonitrile 3 min, to 50% in 2 min, to 85% in 15 min, held 3 min, 100 µL/min
Conditions: column: Zorbax Extend-C18 2.1 x 50 mm; eluents: water / acetonitrile, 0.1% formic acid
quantityMeasured: RP-LC retention time (s)
Give the value, in units of s, as a plain number.

Reference set, count: 5
# compound, RP-LC retention time, s
rows = [
    ("Cc1noc2nc(CCC(=O)NCc3ccccc3F)nc(N3CCCC3)c12", 767),
    ("CCOc1ccccc1NC(=O)Cn1c(=O)n(-c2cccc(C)c2)c(=O)c2c1cc(C)n2C", 943),
    ("O=c1c2cc3c(cc2nc(SCc2nc(-c4ccc(Cl)cc4)no2)n1CC1CCCO1)OCO3 (stereo not given)", 1230),
    ("CC(=O)N1CCCSc2ccc(S(=O)(=O)N3CCCC3)cc21", 774),
    ("COc1ccc(N2CCN(C(=O)CN3C(=O)NC4(CCCCC4)C3=O)CC2)cc1", 694),
]

Query: I have this compound here, `Cc1ccc(F)cc1S(=O)(=O)N1CCN(c2nc3ccncc3n(C)c2=O)CC1` , and I need its recorded RP-LC retention time.
Reply: 586

Query: Quick one: `O=C(NC1CCCCCC1)C1CCN(c2cc(N3CCSCC3)ncn2)CC1`
Reply: 710

Query: Quick one: COc1ccc(OC)c(C2CN(C(=O)C3CCCC3)CC2C(=O)N2CCCCC2)c1 (stereo not given)
Reply: 831

Query: Quick one: `Cn1cnc2c(C(=O)Nc3cccc(Cl)c3)nn(-c3ccccc3)c2c1=O`
Reply: 945

Query: Quick one: `Cc1ccc(C)c(C(=O)Nc2ccc3c(c2)Sc2ncccc2C(=O)N3C(C)C)c1`
Reply: 922

Query: Quick one: `Cc1cc2c(cc1NC(=O)c1ccco1)n(C)c(=O)c(=O)n2C`
Reply: 614

Query: Quick one: `COc1ccc(CCNC(=O)c2cc3c(=O)n(C)c(=O)n(C)c3s2)cc1OC`
Reply: 668

Query: Quick one: `CNC(=O)c1cc(=O)[nH]c2c(Cl)cccc12`
Reply: 596

Query: Quick one: `CCc1nc(N)n(CC(=O)Nc2ccc(C)cc2C)c(=O)c1C`
Reply: 659

Query: Quick one: `O=S(=O)(c1cc(F)ccc1F)N1CCN(Cc2cccc(F)c2)C2(CCOCC2)C1`
Reply: 886
